# target: Human α2δ-1 subunit of Cav2.2 calcium channel (Homo sapiens, UniProt P54289)
# Sequence (P54289 25-1103): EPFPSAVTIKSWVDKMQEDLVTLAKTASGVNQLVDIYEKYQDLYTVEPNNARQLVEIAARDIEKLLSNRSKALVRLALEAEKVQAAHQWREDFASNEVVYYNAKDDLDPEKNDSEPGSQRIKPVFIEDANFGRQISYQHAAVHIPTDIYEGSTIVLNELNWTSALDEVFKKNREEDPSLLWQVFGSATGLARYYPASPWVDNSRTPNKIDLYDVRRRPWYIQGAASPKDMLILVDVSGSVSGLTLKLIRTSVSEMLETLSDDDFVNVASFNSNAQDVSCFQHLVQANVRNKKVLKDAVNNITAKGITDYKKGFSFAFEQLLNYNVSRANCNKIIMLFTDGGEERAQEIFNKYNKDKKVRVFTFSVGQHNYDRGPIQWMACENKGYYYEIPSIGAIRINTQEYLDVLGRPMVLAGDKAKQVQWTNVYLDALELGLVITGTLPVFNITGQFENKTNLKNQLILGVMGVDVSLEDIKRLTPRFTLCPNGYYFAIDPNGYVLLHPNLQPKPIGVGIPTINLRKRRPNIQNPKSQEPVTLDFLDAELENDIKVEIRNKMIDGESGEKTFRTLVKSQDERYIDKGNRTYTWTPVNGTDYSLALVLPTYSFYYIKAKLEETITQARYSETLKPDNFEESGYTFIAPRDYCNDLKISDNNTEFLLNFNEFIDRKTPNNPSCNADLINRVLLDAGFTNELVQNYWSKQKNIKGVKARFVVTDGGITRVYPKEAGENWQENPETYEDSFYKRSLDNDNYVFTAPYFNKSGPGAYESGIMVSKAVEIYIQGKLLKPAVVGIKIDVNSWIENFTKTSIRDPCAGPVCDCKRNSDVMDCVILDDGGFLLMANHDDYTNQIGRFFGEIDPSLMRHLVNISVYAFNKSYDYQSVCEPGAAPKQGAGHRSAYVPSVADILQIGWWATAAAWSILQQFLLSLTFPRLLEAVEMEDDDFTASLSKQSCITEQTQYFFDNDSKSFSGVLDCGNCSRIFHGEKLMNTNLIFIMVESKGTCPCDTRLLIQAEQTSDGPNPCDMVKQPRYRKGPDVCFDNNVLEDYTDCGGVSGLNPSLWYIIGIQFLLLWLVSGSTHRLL
# method_summary: Binding assay to human α2δ-1 subunit of Cav2.2 calcium channel, [3H]-Gabapentin
# run_parameters: human α2δ-1 enriched membranes, 15 nM [3H]-Gabapentin; read-out: Ki (nM) alpha2delta Hum
measured_endpoint: Ki

CNCC[C@@H](c1cccs1)N1CC(C)(C)c2ncccc21 [Example 21] | 500 to 3000 nM
CNCC[C@@H](c1sccc1Cl)N1CCc2ncccc21 [Example 37] | ≥ 3000 nM
CNCC[C@H](c1ccc(C)s1)N1CCc2ncccc21 [Example 44] | 500 to 3000 nM
CNCC[C@@H](c1cccs1)N1CC(C)(C)c2nc(OC)ccc21 [Example 113] | 500 to 3000 nM
CNCC[C@H](c1cccs1)N1CC(C)(C)c2nc(C)ccc21 [Example 34] | < 100 nM

Report measured Ki on Human α2δ-1 subunit of Cav2.2 calcium channel (Homo sapiens, UniProt P54289); entry: CNCCC(c1cccs1)N1CCc2ccncc21 (centres unmarked) [Example 2]
500 to 3000 nM

State, for Human α2δ-1 subunit of Cav2.2 calcium channel (Homo sapiens, UniProt P54289), measured Ki of the compound listed here: CNCC[C@@H](c1cscc1C)N1CCc2ncccc21 [Example 50]
≥ 3000 nM

Under Human α2δ-1 subunit of Cav2.2 calcium channel (Homo sapiens, UniProt P54289): report Ki of CNCCC(c1cccs1)N1CCCc2ncccc21 (centres unmarked) [Example 5] .
100 to 500 nM
